# tgt: HLA-A*03:01
# test-name: IEDB peptide-MHC binding, purified MHC/competitive/radioactivity; filed as Kd, often an IC50 or EC50 that approximates it; bounds were set here for any values at or beyond the usual limits of such assays
# measurement-parameters: source organism: Mammarenavirus guanaritoense
# reported Kd; entries follow
A number alone suffices; assume µM.

Kindly note the recorded Kd for "FTVKLGGVFH" , which is 14.8

Kindly note the recorded Kd for "VCEEFFHQK" , which is 11.6

---

# tgt: HLA-B*15:01
# test-name: IEDB peptide-MHC binding, purified MHC/direct/fluorescence; filed as Kd, often an IC50 or EC50 that approximates it; bounds were set here for any values at or beyond the usual limits of such assays
# measurement-parameters: source organism: Yellow fever virus
reported-endpoint: pKd
Field pKd (float): negative decimal logarithm of the concentration in molar.

Kindly note the recorded pKd for "LVLAVGPAY" , which is 7.27
